- experimentalDetails: Drug level in Sprague-Dawley rat liver at 5 mg/kg, po after 4 hrs
- Format: ADME, organism-based
- Set-up: dose 5 mg/kg, route oral
- measurementConditions: read-out: Drug uptake
property: concentration at 4 h (µM)

Guide cases for concentration at 4 h, answers given:
[
  {
    "smilesRepr": "C=C[C@@H]1C[C@]1(NC(=O)[C@@H]1C[C@@H]2CN1C(=O)[C@H](C1CCCCC1)NC(=O)OCCCCCc1ccc3ccnc(c3c1)O2)C(=O)NS(=O)(=O)C1CC1",
    "property": "concentration at 4 h",
    "result": 29.8
  },
  {
    "smilesRepr": "C=C[C@@H]1C[C@]1(NC(=O)[C@@H]1C[C@@H]2CN1C(=O)[C@H](C(C)(C)C)NC(=O)OCCCCCc1cc(OC)c3ccnc(c3c1)O2)C(=O)NS(=O)(=O)C1CC1",
    "property": "concentration at 4 h",
    "result": 33.2
  }
]

(a) C=C[C@@H]1C[C@]1(NC(=O)[C@@H]1C[C@@H]2CN1C(=O)[C@H](c1c[nH]c3ccccc13)NC(=O)OCCC/C=C/c1ccc3ccnc(c3c1)O2)C(=O)NS(=O)(=O)C1CC1
(b) C=C[C@@H]1C[C@]1(NC(=O)[C@@H]1C[C@@H]2CN1C(=O)[C@H](C(C)(C)C)NC(=O)OCCCCCc1cc(CC)c3ccnc(c3c1)O2)C(=O)NS(=O)(=O)C1CC1
(c) C=C[C@@H]1C[C@]1(NC(=O)[C@@H]1C[C@@H]2CN1C(=O)[C@H](C(C)(C)C)NC(=O)OCCCCCc1cc3c(nccc3cc1OC)O2)C(=O)NS(=O)(=O)C1CC1
# rank by concentration at 4 h, ascending (min first) List each label, following the requested order.
a, c, b
